organism: Rattus norvegicus; assay: Open TG-GATES - Regimen: Daily Repeat; format: toxicity, organism-based, Sprague-Dawley; design: regimen Daily Repeat, gender Male, age 6 weeks; details: in vivo, po, 0 mg/kg, […], tissue Kidney, route gavage, dose level Control, time 7 day
Outcome Measure: KIDNEY_TOTAL (g)
Entry rule: numbers only, all in g.

Compound: CN(C/C=C/C#CC(C)(C)C)Cc1cccc2ccccc12
Outcome Measure: KIDNEY_TOTAL
Reported: 2.5
--
Compound: CC(S)C(=O)NCC(=O)O (stereo unspecified)
Outcome Measure: KIDNEY_TOTAL
Reported: 2.2
--
Compound: CC(=O)[C@@]1(O)CC[C@H]2[C@@H]3C=C(Cl)C4=CC(=O)CC[C@]4(C)[C@H]3CC[C@@]21C
Outcome Measure: KIDNEY_TOTAL
Reported: 2.2
--
Compound: CCCCNC(=O)NS(=O)(=O)c1ccc(C)cc1 [TOLBUTAMIDE]
Outcome Measure: KIDNEY_TOTAL
Reported: 2.2
--
Compound: Nc1ccc(Cc2ccc(N)cc2)cc1
Outcome Measure: KIDNEY_TOTAL
Reported: 2.3

# next compound below
INPUT: Kindly indicate its recorded KIDNEY_TOTAL. Item: CCO
OUTPUT: 2.3

* * *

species on record: Rattus norvegicus; experiment: Open TG-GATES - Regimen: Daily Repeat; assay type: toxicity, organism-based, Sprague-Dawley; set-up: regimen Daily Repeat, gender Male, age 6 weeks; conditions: in vivo, po, 300 mg/kg, […], tissue Blood, route gavage, dose level Middle, time 7 day
Outcome Measure: Fbg
Answer with the number, then the unit.

Solved entries:
Compound: CCCCNC(=O)NS(=O)(=O)c1ccc(C)cc1 [TOLBUTAMIDE]
Fbg: 287 mg/dL
//
Compound: O=C(O)c1ccccc1Nc1ccccc1 [FENAMIC ACID]
Fbg: 313 mg/dL
//
Compound: CC(S)C(=O)NCC(=O)O (centres undefined) [TIOPRONIN]
Fbg: 330.4 mg/dL

# next compound below
INPUT: Kindly indicate its recorded Fbg. Item: CC(=O)[C@@]1(O)CC[C@H]2[C@@H]3C=C(Cl)C4=CC(=O)CC[C@]4(C)[C@H]3CC[C@@]21C [CHLORMADINONE]
OUTPUT: 335.8 mg/dL

* * *

// values below are reported ALP
organism: Rattus norvegicus; test: Open TG-GATES - Regimen: Single; format: toxicity, organism-based, Sprague-Dawley; design: regimen Single, gender Male, age 6 weeks; details: in vivo, po, 0 mg/kg, 6 h, tissue Plasma, route gavage, dose level Control
Answer with the number, then the unit.

Molecule: CN(CCOc1ccc(CC2SC(=O)NC2=O)cc1)c1ccccn1.O=C(O)/C=C\C(=O)O (centres undefined) [ROSIGLITAZONE MALEATE]
Reported: 1368.6 IU/L
--
Molecule: COc1ccc([C@@H]2Sc3ccccc3N(CCN(C)C)C(=O)[C@@H]2OC(C)=O)cc1
Reported: 1331.4 IU/L
--
Molecule: CC(S)C(=O)NCC(=O)O (centres undefined)
Reported: 1487.4 IU/L

# next molecule below
INPUT: Kindly indicate its recorded ALP. Item: CN(C)CCCN1c2ccccc2Sc2ccc(Cl)cc21
OUTPUT: 816 IU/L

* * *

organism: Rattus norvegicus; experiment: Open TG-GATES - Regimen: Daily Repeat; type: toxicity, organism-based, Sprague-Dawley; parameters: regimen Daily Repeat, gender Male, age 6 weeks; conditions: in vivo, po, 0 mg/kg, […], tissue Blood, route gavage, dose level Control, time 14 day
Outcome Measure: MCHC (%)
Entry rule: numbers only, all in %.

Solved entries:
Compound: COc1ccc([C@@H]2Sc3ccccc3N(CCN(C)C)C(=O)[C@@H]2OC(C)=O)cc1
MCHC, %: 33.2

Compound: CCCCC1C(=O)N(c2ccccc2)N(c2ccccc2)C1=O
MCHC, %: 33.6

Compound: NS(=O)(=O)c1cc(C(=O)O)c(NCc2ccco2)cc1Cl [FUROSEMIDE]
MCHC, %: 34.7

Compound: CC(=O)[C@@]1(O)CC[C@H]2[C@@H]3C=C(Cl)C4=CC(=O)CC[C@]4(C)[C@H]3CC[C@@]21C
MCHC, %: 33.5

Compound: CC(S)C(=O)NCC(=O)O (stereo unspecified)
MCHC, %: 34.8

# next compound below
INPUT: Kindly indicate its recorded MCHC. Item: O=C(O)c1ccccc1Nc1ccccc1
OUTPUT: 34.2
